# Test system: pigweed (Amaranthus retroflexus)
# assay.summary: Test A preemergence
# Type: in vivo
# test.settings: Amaranthus retroflexus, pre-emergence, 240 h, Preemergence, 125 g ai/ha; 0 to 100 scale (0 no effect, 100 complete control); read-out: Plant response rating, Pigweed
Each entry below carries its reported pest or weed control at 125 g/ha.
// units = %; emit number, no label

Solved cases below.
>  <smiles.record>
CN1CC[C@H](c2cccc(C(F)(F)F)c2)[C@@H](C(=O)Nc2cccc(F)c2F)C1=O

>  <pest or weed control at 125 g/ha / %>
0

$$$$
>  <smiles.record>
CN1C[C@H](c2cccc(C(F)(F)F)c2)[C@@H](C(=O)Nc2cccnc2F)C1=O

>  <pest or weed control at 125 g/ha / %>
0

$$$$
>  <smiles.record>
CN1C[C@H](c2ccc(C(F)(F)F)cc2)[C@@H](C(=O)Nc2cccc(F)c2C#N)C1=O

>  <pest or weed control at 125 g/ha / %>
80

$$$$
>  <smiles.record>
CN1CC[C@H](c2cccc(C(F)(F)F)c2)[C@@H](C(=O)Nc2ccccc2F)C1=O

>  <pest or weed control at 125 g/ha / %>
0

$$$$
>  <smiles.record>
CC(C)=Cc1cc([C@H]2CN(C)C(=O)[C@@H]2C(=O)Nc2cccc(F)c2F)ccc1C(F)(F)F

>  <pest or weed control at 125 g/ha / %>
0

$$$$
>  <smiles.record>
CSc1ccccc1NC(=O)[C@H]1C(=O)N(C)C[C@@H]1c1ccc(C(F)(F)F)cc1

>  <pest or weed control at 125 g/ha / %>
90

$$$$

Switching to the query record.
Task: Please list pest or weed control at 125 g/ha recorded for the compound CN1C[C@H](c2ccc(C(F)(F)F)cc2)[C@@H](C(=O)Nc2cccc(F)n2)C1=O
Output: 80
